Property: EC50; scope: individual binders
Biological target: T1, mouse GPNMB endogenously expressed on B16F10 cells (mouse, UniProt Q99P91 23-574)
T1 construct: whole, on cells; also called moGPNMB
T1 sequence (looked up): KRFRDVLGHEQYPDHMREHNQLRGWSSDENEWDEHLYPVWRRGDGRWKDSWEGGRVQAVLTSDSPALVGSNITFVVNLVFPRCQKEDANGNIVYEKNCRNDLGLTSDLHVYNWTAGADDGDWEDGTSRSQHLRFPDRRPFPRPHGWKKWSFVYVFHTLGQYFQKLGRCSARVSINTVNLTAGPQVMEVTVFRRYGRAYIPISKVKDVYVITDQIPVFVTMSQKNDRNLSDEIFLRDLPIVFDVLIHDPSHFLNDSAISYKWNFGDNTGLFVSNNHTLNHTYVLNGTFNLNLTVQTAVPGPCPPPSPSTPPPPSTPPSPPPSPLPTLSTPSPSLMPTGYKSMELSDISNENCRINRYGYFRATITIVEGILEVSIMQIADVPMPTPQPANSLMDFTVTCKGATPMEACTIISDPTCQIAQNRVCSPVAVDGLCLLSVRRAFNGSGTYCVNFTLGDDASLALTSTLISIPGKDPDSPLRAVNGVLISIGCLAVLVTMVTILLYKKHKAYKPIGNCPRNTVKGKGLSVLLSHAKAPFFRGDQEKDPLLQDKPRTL
Experiment: FACS titration, B16F10 cells

# Binder, Output Unit, EC50
rows = [
    ("anti-GPNMB antibody GPN-91 (antibody, V domains shown) VH: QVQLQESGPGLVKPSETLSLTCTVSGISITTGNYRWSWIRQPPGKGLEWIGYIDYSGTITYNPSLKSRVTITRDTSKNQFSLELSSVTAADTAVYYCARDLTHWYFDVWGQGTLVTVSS VL: DIVMTQSPDSLAVSLGERATINCKSSRSVDYYGIGFLNWYQQKPGQPPKLLIYATSHQGSGVPDRFSGSGSGTDFTLTISSLQAEDVAVYYCQQQKERPPTFGGGTKVEIK", "nM", 0.273),
    ("anti-GPNMB antibody GPN-84 (antibody, V domains shown) VH: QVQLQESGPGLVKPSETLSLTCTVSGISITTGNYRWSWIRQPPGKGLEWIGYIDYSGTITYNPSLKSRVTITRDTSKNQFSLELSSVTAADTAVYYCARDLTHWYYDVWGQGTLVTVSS VL: DIVMTQSPDSLAVSLGERATINCKSSRSVDYYGIGFVNWYQQKPGQPPKLLIYATSIQGSGVPDRFSGSGSGTDFTLTISSLQAEDVAVYYCQQQKEVPPTFGGGTKVEIK", "nM", 0.33),
    ("anti-GPNMB antibody GPN-85 (antibody, V domains shown) VH: QVQLQESGPGLVKPSETLSLTCTVSGISITTGNYRWSWIRQPPGKGLEWIGYIDYSGTITYNPSLKQRVTITRDTSKNQFSLELSSVTAADTAVYYCARDLTHWYFDVWGQGTLVTVSS VL: DIVMTQSPDSLAVSLGERATINCKSSRSVDYFGIGFLNWYQQKPGQPPKLLIYATSHQGSGVPDRFSGSGSGTDFTLTISSLQAEDVAVYYCQQQKEVPPTFGGGTKVEIK", "nM", 0.317),
]
